Reported composite z-score values for a set of compounds
Target: Neurogenic locus notch homolog protein 2 (Homo sapiens)
Experiment: small molecules binding Notch2 protein – biochemical, small-molecule microarray, 635 nm fluorescence, stem cell growth factors, primary screen (AID 1073)
Conditions: higher = more signal
measured-endpoint: composite z-score

* CCCCC(=C=CC[C@@H](O)c1ccc(CO)o1)CCO | -0.168
* O=C(O)[C@H]1C[C@H]2C(=O)N3CCC[C@H]3C(=O)N2[C@H]1c1ccc(O)cc1 | -2.12
* COC(=O)C(CC#Cc1ccc2c(c1)[C@]1(C(=O)N2)[C@H](c2ccc(O)cc2)N2[C@H](c3ccccc3)[C@H](c3ccccc3)OC(=O)[C@H]2[C@@H]1C(=O)N1CCN(c2ncccn2)CC1)C(=O)OC | 0.577
* CC(C)N1CC=CC23O[C@@H]4C=CCOC(=O)[C@@H]4[C@H]2C(=O)N(CCCCCO)[C@@H]3C1=O (some centres undefined) | -0.669

###

Reported composite z-score values for a set of compounds
System: Sam68 (KHDRBS1)
Assay: compounds binding KHDRBS1 protein – biochemical, small-molecule microarray, 635 nm fluorescence, primary screen (AID 1125);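 note: score merges 667 nm channel intensity with signal to noise over triplicate slides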
Settings: higher = more signal
measured-endpoint: composite z-score

• O=C(NCCN1CCOCC1)[C@@H]1c2ccccc2C(=O)N(Cc2cc(C(F)(F)F)cc(C(F)(F)F)c2)[C@H]1c1ccc(CO)cc1 = 0.687
• COC(=O)[C@@]1(Cc2ccccc2)[C@H]2c3cc(C(=O)N(C)C)n(Cc4ccc(OC)c(OC)c4)c3C[C@H]2CN1C(=O)c1ccccc1 = 1.29
• CCOC(=O)C1=CC[C@@H](c2ccc(C(F)(F)F)cc2)N(S(=O)(=O)c2ccc(C)cc2)[C@H]1c1ccccc1 = 1.31
• COCCOC(=O)N1C(=O)[C@@]2(c3ccccc31)[C@H](C(N)=O)[C@H]1C(=O)O[C@H](c3ccccc3)[C@H](c3ccccc3)N1[C@@H]2c1ccc(O)cc1 = 0.371
• CS(=O)(=O)CCOC(=O)C1=CC(CCCO)=CC(c2ccc(CN3CCCC3)cc2)N(Cc2cccc(OC(F)(F)F)c2)C=C1C(=O)OCCS(C)(=O)=O (stereo not given) = 1.26
• C=C(/C(=C/C[C@H](OC(C)=O)c1ccc(OCCO)cc1)c1cc(C(=O)OC)ccc1OC)C(C)C = 1.31
• O=C1O[C@@H](c2ccccc2)[C@@H](c2ccccc2)N2[C@@H](c3ccccc3OCCO)[C@]3(C(=O)Nc4ccccc43)[C@@H](C(=O)O)[C@H]12 = 1.12
• COC(=O)[C@@]1(Cc2ccccc2)[C@H]2c3cc(C(=O)N(C)C)n(CCc4c[nH]c5ccc(O)cc45)c3C[C@H]2CN1C(=O)c1ccccc1 = 0.878
• COC(=O)[C@@]1(Cc2ccccc2)[C@H]2c3cc(C(=O)N4CCCC4)n(Cc4ccc(O)c(OC)c4)c3C[C@H]2CN1C(=O)c1ccccc1 = 0.008
• COc1ccc(C(O)C2C=CC3C(=O)N(C)C(=O)C3N2N(c2ccccc2)c2ccccc2)c2ccccc12 (stereo not given) = -0.481
• O=C1C2C=CC(C(O)c3ccc(F)cc3)N(Nc3ccc([N+](=O)[O-])cc3)C2C(=O)N1c1ccccc1 (stereo not given) = 1.31
• COC(=O)c1c2oc(c1C(=O)OC)C(=O)NC1(CCCCC1)c1cn(nn1)C[C@H](Cc1ccccc1)NC(=O)N[C@H](CO)CC2 = 0.789
• C=CC[C@]12N=C(c3ccc(OCCCO)cc3)O[C@H]1c1ccccc1N(CCS(=O)(=O)c1ccccc1)C2=O = 1.3
• C=C(CCCC)C(=O)CC[C@H](OC(=O)c1cccnc1)c1ccc(OCCO)cc1 = 0.567
• CCOC(=O)C1=C[C@@H](C(C)C)N(S(=O)(=O)c2ccc(C)cc2)[C@H]1c1ccccc1F = 1.31
